Tested on: ex vivo calcium ionophore-stimulated LTB4 production in whole blood
Assay: Murine arachidonic acid-induced inflammation model: ex vivo stimulated LTB4 production in blood
Set-up: species or system Balb/c mice
Conditions: Mus musculus; 30 mg/kg oral gavage; blood diluted 1:1, A23187 stimulated ex vivo; percent inhibition of LTB4 production; read-out: % Inh. LTB4
Counter-ions that a name gives are not always drawn.
outcome.measure: inhibition at 30 mg/kg

>>> print(df.to_string())
                                    compound  obs_value
 0  COC[C@@H]1CCCN1Cc1coc2cc(Oc3nc4ncccc4s3)ccc12 [Example 186]        86%
 1  c1cnc2nc(Oc3ccc4c(CCN5CCOCC5)coc4c3)sc2c1 [Example 256]      68.4%
 2  CC(=O)N1C[C@@H]2C[C@H]1CN2Cc1cc2ccc(Oc3nc4ncccc4s3)cc2o1 [Example 168]        70%
 3  c1cnc2sc(Oc3ccc4c(CN5CCOCC5)c[nH]c4c3)nc2n1 [Example 56]        40%
 4  CC(=O)NCC1CCN(Cc2coc3cc(Oc4nc5ncccc5s4)ccc23)CC1 [Example 162]        90%
 5  CC(=O)N1CCN(Cc2coc3cc(Oc4nc5ncccc5s4)ccc23)CC1 [Example 196, formate]        91%
 6  CC(=O)N1C[C@@H]2CC[C@H]1CN2Cc1coc2cc(Oc3nc4ncccc4s3)ccc12 [Example 237]        90%
 7  CC(=O)N1C[C@H]2C[C@@H]1CN2Cc1coc2cc(Oc3nc4ncccc4s3)ccc12 [Example 157]        97%
 8  CC(=O)N[C@@H]1C[C@H]2CC[C@@H](C1)N2Cc1cc2cc(Oc3nc4ncccc4s3)ccc2o1 [Example 104]        83%
 9  CC(=O)N1C[C@@H]2CC[C@H]1CN2Cc1cc2ccc(Oc3nc4ncccc4s3)cc2o1 [Example 170]        76%
10  CC(=O)N1CCC2(CCN(Cc3cc4cc(Oc5nc6ncccc6s5)ccc4o3)CC2)CC1 [Example 167]        78%
11  CS(=O)(=O)NC1CCN(Cc2coc3cc(Oc4nc5ncccc5s4)ccc23)CC1 [Example 244]      80.7%
12  O=C(O)C1CCN(Cc2cc3ccc(Oc4nc5ccccc5s4)cc3o2)CC1 [Example 77]        85%
13  c1cnc2nc(Oc3ccc4c(CN5CCOCC5)coc4c3)sc2c1 [Example 156]        91%
14  CC(=O)N[C@@H]1C[C@H]2CC[C@@H](C1)N2Cc1cc2ccc(Oc3nc4ncccc4s3)cc2o1 [Example 106]        85%
15  CC(C)(C)C(=O)NC1CCN(Cc2cc3ccc(Oc4nc5ncccc5s4)cc3o2)C1 (centres unmarked) [Example 236, formate]        39%
16  NC(=O)N1C[C@H]2C[C@@H]1CN2Cc1coc2cc(Oc3nc4ncccc4s3)ccc12 [Example 160]        90%

These entries and their values trace back to patent US8399465B2.
